# target_entity: SARS-CoV-2 nsp7/8/12 complex (Severe acute respiratory syndrome coronavirus 2, UniProt P0DTD1)
# method_notes: SARS-CoV-2 nsp7/8/12 in vitro activity assay
measured_parameter: IC50 (mM)
Answers are plain numbers, in mM.

Look at this molecule and give its reported IC50. C[n+]1ccc(C(=O)NCc2ccccc2)cc1 [FAV00A, reference compound]
40.7
